# testedSystem: T1, Hmm-hTFRC (REGN2431), monomeric human transferrin receptor ectodomain with N-terminal hexahistidine-myc-myc … (human, UniProt P02786 89-760)
# T1 construct: also called hmm.hTfR(C89-F763); His-myc-myc-hTFRC ecto
# T1 sequence (P02786 other isoform, or with tags, fused parts or gaps): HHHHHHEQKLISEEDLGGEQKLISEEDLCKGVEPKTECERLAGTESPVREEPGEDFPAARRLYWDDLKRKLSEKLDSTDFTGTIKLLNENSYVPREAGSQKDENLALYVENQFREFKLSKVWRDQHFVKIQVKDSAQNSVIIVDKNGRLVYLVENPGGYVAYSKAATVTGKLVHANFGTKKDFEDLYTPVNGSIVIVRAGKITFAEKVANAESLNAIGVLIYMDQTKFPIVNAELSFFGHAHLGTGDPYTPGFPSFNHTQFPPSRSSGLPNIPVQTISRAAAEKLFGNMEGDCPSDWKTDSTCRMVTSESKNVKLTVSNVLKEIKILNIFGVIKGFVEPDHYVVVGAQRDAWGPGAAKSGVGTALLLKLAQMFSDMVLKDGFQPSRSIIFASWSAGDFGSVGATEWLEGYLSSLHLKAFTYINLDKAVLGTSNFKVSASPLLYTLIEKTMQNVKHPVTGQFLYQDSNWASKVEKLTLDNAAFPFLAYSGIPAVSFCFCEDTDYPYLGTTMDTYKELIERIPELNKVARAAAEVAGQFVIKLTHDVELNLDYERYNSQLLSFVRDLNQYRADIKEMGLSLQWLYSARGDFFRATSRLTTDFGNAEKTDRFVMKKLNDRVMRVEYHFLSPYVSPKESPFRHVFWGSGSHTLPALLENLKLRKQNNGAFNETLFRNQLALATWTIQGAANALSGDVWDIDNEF
# assayProcedure: blocking ELISA, supernatant; Hmm-hTFRC binding to immobilized human holo-Tf
assayReadout: % Blocking (%)
The reply should contain only the number, in %.

Task: Tell me measured % Blocking for 12808B scFv (VK-VH) (scFv, CHO supernatant; Vk-3xG4S-Vh) scFv: DIQMTQSPSSLSASVGDRVTINCRASQGIRNDLGWYQQKPGKAPKRLIYAASSLQSGVPLRFSGSGSGTEFTLTINNLQPEDFATYYCLSHNSYPWTFGQGTKVEIKGGGGSGGGGSGGGGSQLQLQESGPGLVKPSETLSLTCTVSGESISSNTYYWGWIRQPPGKGLEWIGSIDYSGTTNYNPSLKSRVTISVDTSRNHFSLRLRSVTAADTAVYYCAREWGNYGYYYGMDVWGQGTTVTVSS please.
Output: 18

Task: # return recorded % Blocking for input 69326 scFv (VK-VH) (scFv, CHO supernatant; Vk-3xG4S-Vh) scFv: EIVMTQSPATLSVSPGERATLSCRASQSVSSNFAWYQQKPGQAPRLLIYSASSRATGIPVRFSGSGSGTEFTLTISSLQSEDFAVYYCQQYNIWPRTFGQGTKVEIKGGGGSGGGGSGGGGSEVQLVESGGGLVQPGGSLRLSCAVSGFIFSSYEMNWVRQAPGKGLEWVSYISSSGSTIFYADSVKGRFTISRDNAKNSLYLQMNSLRAEDTAVYYCVSGVVLFDVWGQGTMVTVSS
Output: 12
